Below: a set of entries, each annotated with reported normalized RNA/DNA level with ligand (log10).
B1: library; a variant is named by its letters at N, in order (parent)
chain: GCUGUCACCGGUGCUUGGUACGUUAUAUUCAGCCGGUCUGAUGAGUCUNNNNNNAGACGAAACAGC

Variants of: B1
Test: normalized RNA/DNA level with ligand (relative to sTRSVctl = 100) (log10 (% of sTRSVctl)); HEK293T overexpressing SLC46A1; ligand concentration (+) RNA-Seq: 6 mM; higher = less ribozyme self-cleavage, higher mRNA level
Details: with (6R,S)-folinic acid; ligand present: yes
Returns: the value as a bare number; no unit string appended.

CUAGUU = 2.03
GAUGCU = 2
ACCAGU = 2.02

So what's the measured normalized RNA/DNA level with ligand (log10) for this one? UAGCGC
2

For UCGUAC then?
2.05

For CCACUG then?
2.07

This collection of values is drawn from the supplement of paper PMC6757056.
